Taken from patent US6072057A.

- target desc: Histamine H3 receptor (Rattus norvegicus)
- Sequence (Q9QYN8 whole entry): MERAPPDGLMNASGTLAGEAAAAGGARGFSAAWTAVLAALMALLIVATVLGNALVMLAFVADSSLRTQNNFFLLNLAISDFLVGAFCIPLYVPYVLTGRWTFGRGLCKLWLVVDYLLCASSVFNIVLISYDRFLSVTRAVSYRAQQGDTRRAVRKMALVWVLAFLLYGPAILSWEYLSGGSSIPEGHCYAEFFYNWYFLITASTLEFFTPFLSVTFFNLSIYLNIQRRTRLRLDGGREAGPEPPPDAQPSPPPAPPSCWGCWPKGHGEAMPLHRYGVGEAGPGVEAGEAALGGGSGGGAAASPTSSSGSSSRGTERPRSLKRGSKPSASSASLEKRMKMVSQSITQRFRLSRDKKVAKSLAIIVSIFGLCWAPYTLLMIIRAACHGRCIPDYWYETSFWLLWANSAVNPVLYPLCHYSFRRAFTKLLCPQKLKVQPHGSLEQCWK
experimental endpoint: pKi
Quick note: pKi values are minus log10 of concentrations in mol/L.

What measured pKi goes with NC1CCC(c2c[nH]cn2)CC1 (stereo not shown) ?
7.70
